System: Bacteroides thetaiotaomicron
Assay: IC25 growth inhibition; higher = less potent
MEASURED ATTRIBUTE: IC25 growth inhibition

MOLECULE	MEASURED ATTRIBUTE	RESULT
N[C@@H](Cc1cc(I)c(Oc2cc(I)c(O)c(I)c2)c(I)c1)C(=O)O	IC25 growth inhibition	> 160 µM
CC[C@H]1OC(=O)[C@H](C)[C@@H](O[C@H]2C[C@@](C)(OC)[C@@H](O)[C@H](C)O2)[C@H](C)[C@@H](O[C@@H]2O[C@H](C)C[C@H](N(C)C)[C@H]2O)[C@](C)(O)C[C@@H](C)C(=O)[C@H](C)[C@@H](O)[C@]1(C)O	IC25 growth inhibition	< 1.25 µM
C/C=C(/C(=C/C)c1ccc(O)cc1)c1ccc(O)cc1	IC25 growth inhibition	≤ 20 µM
CO[C@@H]1[C@@H](OC(N)=O)[C@@H](O)[C@H](Oc2ccc3c(O)c(NC(=O)c4ccc(O)c(CC=C(C)C)c4)c(=O)oc3c2C)OC1(C)C	IC25 growth inhibition	≤ 20 µM
COc1ccc2[nH]c([S+]([O-])Cc3ncc(C)c(OC)c3C)nc2c1 (configuration not stated)	IC25 growth inhibition	> 160 µM
C[C@]1(Cn2ccnn2)[C@H](C(=O)O)N2C(=O)C[C@H]2S1(=O)=O	IC25 growth inhibition	≤ 20 µM
CNCCCC1c2ccccc2C=Cc2ccccc21	IC25 growth inhibition	≤ 80 µM

* * *

IC25 growth inhibition overview
Test system: Vibrio cholerae
Assay: IC25 growth inhibition; higher = less potent

COMPOUND	IC25 growth inhibition
Nc1nc(=S)c2ncn([C@@H]3O[C@H](CO)[C@@H](O)[C@H]3O)c2[nH]1	> 40 µM
C#C[C@]1(O)CC[C@H]2[C@@H]3CCc4cc(O)ccc4[C@H]3CC[C@@]21C	≤ 40 µM
CCOC(=O)C1=C(C)NC(C)=C(C(=O)OC)C1c1cccc(Cl)c1Cl (stereo unspecified)	> 80 µM
O=c1[nH]c(=O)n([C@H]2C[C@H](O)[C@@H](CO)O2)cc1F	≤ 10 µM
O=C(O)Cc1cc(I)c(Oc2ccc(O)c(I)c2)c(I)c1	≤ 80 µM
CC[C@H]1OC(=O)[C@H](C)[C@@H](O[C@H]2C[C@@](C)(OC)[C@@H](O)[C@H](C)O2)[C@H](C)[C@@H](O[C@@H]2O[C@H](C)C[C@H](N(C)C)[C@H]2O)[C@](C)(OC)C[C@@H](C)C(=O)[C@H](C)[C@@H](O)[C@]1(C)O	< 1.25 µM
N[C@@H](Cc1cc(I)c(Oc2cc(I)c(O)c(I)c2)c(I)c1)C(=O)O	> 160 µM
N=C(N)c1ccc(OCCCCCOc2ccc(C(=N)N)cc2)cc1 [Pentamidine Isothionate]	> 160 µM
CO[C@@H]1[C@@H](OC(N)=O)[C@@H](O)[C@H](Oc2ccc3c(O)c(NC(=O)c4ccc(O)c(CC=C(C)C)c4)c(=O)oc3c2C)OC1(C)C	< 1.25 µM
Clc1ccc(Cn2c(CN3CCCC3)nc3ccccc32)cc1	≤ 80 µM
Cc1ncc([N+](=O)[O-])n1CCO	≤ 160 µM
CC(=O)Oc1cccc2c1C(=O)c1c(OC(C)=O)cc(C(=O)O)cc1C2=O	≤ 40 µM
CN[C@H]1CC[C@@H](c2ccc(Cl)c(Cl)c2)c2ccccc21	≤ 80 µM
COc1cccc2c1C(=O)c1c(O)c3c(c(O)c1C2=O)C[C@@](O)(C(=O)CO)C[C@@H]3O[C@H]1C[C@H](N)[C@H](O)[C@H](C)O1	> 160 µM
C[C@H]1O[C@H](O[C@H]2[C@H](O)[C@@H](O)[C@@H](O[C@H]3[C@H](O)[C@@H](O)C(O)O[C@@H]3CO)O[C@@H]2CO)[C@H](O)[C@@H](O)[C@@H]1N[C@H]1C=C(CO)[C@@H](O)[C@H](O)[C@H]1O (stereo partly specified)	> 160 µM
C[C@]1(Cn2ccnn2)[C@H](C(=O)O)N2C(=O)C[C@H]2S1(=O)=O	> 160 µM
CCOC(=O)C1=C(COCCN)NC(C)=C(C(=O)OC)C1c1ccccc1Cl (stereo unspecified)	> 80 µM
C[C@H]1c2cccc(O)c2C(=O)C2=C(O)[C@]3(O)C(=O)C(C(N)=O)=C(O)[C@@H](N(C)C)[C@@H]3[C@@H](O)[C@@H]21	< 1.25 µM
O=c1oc2ccccc2c(O)c1Cc1c(O)c2ccccc2oc1=O	≤ 80 µM
C[C@@H](O[C@H]1OCCN(Cc2n[nH]c(=O)[nH]2)[C@H]1c1ccc(F)cc1)c1cc(C(F)(F)F)cc(C(F)(F)F)c1 [Aprepitant]	> 160 µM
CN(C)C(=O)C(CCN1CCC(O)(c2ccc(Cl)cc2)CC1)(c1ccccc1)c1ccccc1 [Loperamide]	> 80 µM
C/C=C(/C(=C/C)c1ccc(O)cc1)c1ccc(O)cc1	≤ 40 µM
CCCc1nc2c(C)cc(-c3nc4ccccc4n3C)cc2n1Cc1ccc(-c2ccccc2C(=O)O)cc1	> 40 µM
CN(C)C(=N)NC(=N)N	> 160 µM
CN(Cc1cnc2nc(N)nc(N)c2n1)c1ccc(C(=O)N[C@@H](CCC(=O)O)C(=O)O)cc1 [Methotrexate]	≤ 40 µM
Cc1c(N(C)CS(=O)(=O)O)c(=O)n(-c2ccccc2)n1C	> 160 µM
Clc1ccccc1C(c1ccccc1)(c1ccccc1)n1ccnc1	> 80 µM
CC(=O)N1CCN(c2ccc(OCC3COC(Cn4ccnc4)(c4ccc(Cl)cc4Cl)O3)cc2)CC1 (stereo unspecified)	> 160 µM
NC[C@H]1O[C@H](O[C@H]2[C@H](O)[C@@H](O[C@H]3O[C@H](CO)[C@@H](O)[C@H](N)[C@H]3O)[C@H](N)C[C@@H]2N)[C@H](N)C[C@@H]1O	≤ 160 µM
O=C(Nc1ccc([N+](=O)[O-])cc1Cl)c1cc(Cl)ccc1O [Niclosamide]	< 1.25 µM
COc1cc(C(=O)NS(=O)(=O)c2ccccc2C)ccc1Cc1cn(C)c2ccc(NC(=O)OC3CCCC3)cc12	> 80 µM

* * *

Tested on: Fusobacterium nucleatum subsp. Nucleatum
Assay: IC25 growth inhibition; higher = less potent
MEASURED ATTRIBUTE: IC25 growth inhibition

> print(dat)
                                   molecule    result
1  C[C@]1(Cn2ccnn2)[C@H](C(=O)O)N2C(=O)C[C@H]2S1(=O)=O   ≤ 20 µM
2  CCC(C)(C)C(=O)O[C@H]1C[C@@H](C)C=C2C=C[C@H](C)[C@H](CC[C@@H]3C[C@@H](O)CC(=O)O3)[C@H]21   > 80 µM
3      Clc1ccc(Cn2c(CN3CCCC3)nc3ccccc32)cc1  ≤ 160 µM
4  N[C@@H](Cc1cc(I)c(Oc2cc(I)c(O)c(I)c2)c(I)c1)C(=O)O  > 160 µM
5               CNCCCC1c2ccccc2C=Cc2ccccc21  ≤ 160 µM
6  CC(C)(C)c1ccc(C(O)CCCN2CCC(C(O)(c3ccccc3)c3ccccc3)CC2)cc1 (centres undefined)   ≤ 80 µM
7           CCn1cc(C(=O)O)c(=O)c2ccc(C)nc21  ≤ 160 µM
8  CCOC(=O)N1CCC(=C2c3ccc(Cl)cc3CCc3cccnc32)CC1  > 160 µM
9  O=C1NCCN1CCN1CCC(c2cn(-c3ccc(F)cc3)c3ccc(Cl)cc23)CC1   ≤ 40 µM

* * *

Test system: Com21 synthetic gut community
Assay: community biomass OD578 after 24 h drug treatment relative to untreated (fraction of untreated control); higher = more community growth
Conditions: drug pretreatment concentration 20 µM; community: Com21 (Com20 + E. coli ED1a)
community biomass OD578 overview
MEASURED ATTRIBUTE: community biomass OD578

> print(dat)
                                   molecule              target.under.test       measured.attribute  numeric.readout
1  CC(=O)N1CCN(c2ccc(OCC3COC(Cn4ccnc4)(c4ccc(Cl)cc4Cl)O3)cc2)CC1 (centres undefined) [Ketoconazole]  Com21 synthetic gut community  community biomass OD578            0.979
2  CN(Cc1cnc2nc(N)nc(N)c2n1)c1ccc(C(=O)N[C@@H](CCC(=O)O)C(=O)O)cc1 [Methotrexate]  Com21 synthetic gut community  community biomass OD578             0.95
3  OC(Cn1cncn1)(Cn1cncn1)c1ccc(F)cc1F [Fluconazole]  Com21 synthetic gut community  community biomass OD578             1.02
4  CN1CCN(C2=Nc3ccccc3Oc3ccc(Cl)cc32)CC1 [Loxapine]  Com21 synthetic gut community  community biomass OD578            0.996

* * *

Test system: Clostridium saccharolyticum
Assay: IC25 growth inhibition; higher = less potent
IC25 growth inhibition overview
MEASURED ATTRIBUTE: IC25 growth inhibition

> print(dat)
                                   compound            target.under.test    result
1  CCCc1nc2c(C)cc(-c3nc4ccccc4n3C)cc2n1Cc1ccc(-c2ccccc2C(=O)O)cc1 [Telmisartan]  Clostridium saccharolyticum   > 80 µM
2  CC/C(=C(\c1ccccc1)c1ccc(OCCN(C)C)cc1)c1ccccc1 [Tamoxifen]  Clostridium saccharolyticum   > 40 µM
3  CC(C)(C)c1ccc(C(O)CCCN2CCC(C(O)(c3ccccc3)c3ccccc3)CC2)cc1 (stereo not given) [Terfenadine]  Clostridium saccharolyticum   ≤ 40 µM
4  CNCCCC1c2ccccc2C=Cc2ccccc21 [Protriptyline]  Clostridium saccharolyticum  > 160 µM
5  N=C(N)c1ccc(OCCCCCOc2ccc(C(=N)N)cc2)cc1 [Pentamidine Isothionate]  Clostridium saccharolyticum   ≤ 10 µM
